Test system: KM12 colon
Test: NCI tumour cell line growth inhibition, 48 h
value_kind: GI50

Example cases with answers are listed next.
- smiles_code: "CCOC(=O)Nc1ccc(-c2nc(-c3cccc(OCCN4CCOCC4)c3)c(-c3ccnc(Br)c3)[nH]2)cc1"
  GI50: "3.19 µM"
- smiles_code: "COc1ccc(Nc2nnc(-c3cc(O)ccc3O)s2)cc1"
  GI50: "32.6 µM"

Please look at the following compound next.
Complete the entry with GI50 for C[C@@H]1CC[C@@H]2[C@@H]1[C@H](OC(=O)/C=C/c1ccccc1)[C@]1(C3CCCCC3)C[C@@H](OC(=O)CO)[C@@]2(C)O1
3.1 µM

* * *

The following molecules each carry a recorded GI50 for MDA-MB-435.

Report value: GI50, system: MDA-MB-435, molecule: Cc1ccc(NC(=O)CC2CC2)cc1-c1ccc(C(=O)NCC2CC2)cc1
> 19.5 µM

Write GI50 of COc1cc(-n2cc(-c3ccc(F)cc3)[nH]c2=O)cc(OC)c1OC ; system used: MDA-MB-435
> 100 µM

Write GI50 of CCSc1ncnc2c1ncn2C1OC(CO)C(O)C1O (stereo not drawn) ; system used: MDA-MB-435
0.482 µM

* * *

Tested on: CCRF-CEM leukemia
Assay: NCI tumour cell line growth inhibition, 48 h; in the data active = GI50 below about 0.43 µM; inactive = the rest
One label from this list, please: 1 (yes) (active), 0 (no) (inactive)

- molecule: "COc1ccc(/C=C2/N=C(c3ccccc3)N(c3c(C)n(C)n(-c4ccccc4)c3=O)C2=O)cc1OC"
  target_desc: "CCRF-CEM leukemia"
  label_class: "0 (no)"
- molecule: "Oc1cc2cccc[n+]2c2cc(Cl)ccc12"
  target_desc: "CCRF-CEM leukemia"
  label_class: "0 (no)"

Record request — test call for Cc1ncc(C(=O)Nc2ccc(CN3CCN(C)CC3)c(C(F)(F)F)c2)cc1C#Cc1cnc(N)c2ccncc12
0 (no)

Which outcome was entered for the molecule O=C1Nc2ccccc2/C1=N\[O-].O=C1Nc2ccccc2/C1=N\[O-].[Cu+2] in this test?
0 (no)

Which result was noted for this molecule in the test: C=CCCCCOc1ccccc1-c1cnc(OCCCCC=C)n1C
0 (no)

* * *

System: NCI/ADR-RES ovarian
Test: NCI tumour cell line growth inhibition, 48 h
value_kind: GI50

See these solved cases before continuing.
- molecule: "COc1ccc2c(c1)C(=O)c1c-2c(N2CCN(C(=O)CNCCNCCO)CC2)nc2ccccc12"
  GI50: "15 µM"
- molecule: "COc1ccc(/C=C2/N=C(c3ccccc3)N(c3c(C)n(C)n(-c4ccccc4)c3=O)C2=O)cc1OC"
  GI50: "> 100 µM"
- molecule: "Nc1c(C(=O)Nc2ccncc2)sc2nc3c(cc12)CCCCCCCC3"
  GI50: "0.921 µM"
- molecule: "CCOC(=O)Nc1ccc(-c2nc(-c3cccc(OCCN4CCOCC4)c3)c(-c3ccnc(Br)c3)[nH]2)cc1"
  GI50: "3.39 µM"
- molecule: "C=C(C)[C@@H]1CC[C@]2(C)[C@H](CC=C3[C@@H]4CC(C)(C)CC[C@]4(C(N)=O)CC[C@]32C)[C@@]1(C)CCC#N"
  GI50: "3.75 µM"

Here is another molecule to look at.
Give a short answer stating reported GI50 for COc1cc(Cn2c(-c3ccccc3)c(Cl)c3c2-c2oncc2CC3)cc(OC)c1 .
2.58 µM

* * *

This listing pairs compounds with measured GI50.
Test system: T-47D breast
Assay: NCI tumour cell line growth inhibition, 48 h

- compound: "C#C[C@]1(O)CCC2C3CCc4cc(O)ccc4C3CC[C@@]21C (stereo partly specified)"
  GI50: "6.91 µM"
- compound: "CC(=O)OC12C=CC(=O)N1c1ccccc1C(=O)O2 (stereo unspecified)"
  GI50: "> 100 µM"
- compound: "CCOC(=O)Nc1ccc(-c2nc(-c3cccc(OCCN4CCOCC4)c3)c(-c3ccnc(Br)c3)[nH]2)cc1"
  GI50: "2.74 µM"
- compound: "C[C@@H]1CC[C@@H]2[C@@H]1[C@H](OC(=O)/C=C/c1ccccc1)[C@]1(C3CCCCC3)C[C@@H](OC(=O)CO)[C@@]2(C)O1"
  GI50: "2.64 µM"
- compound: "Nc1c(C(=O)Nc2ccncc2)sc2nc3c(cc12)CCCCCCCC3"
  GI50: "0.94 µM"
- compound: "[Cl][Hg][c]1cc[c]([Hg][Cl])o1"
  GI50: "1.18 µM"
- compound: "CCn1c2ccccc2c2cc(NC(=O)Nc3ccc([N+](=O)[O-])cc3C)ccc21"
  GI50: "2.34 µM"
- compound: "Nc1nc(/C=C\\c2ccc([N+](=O)[O-])s2)nc(N2CCCC2)n1"
  GI50: "1.68 µM"

Give GI50 for the following compound: CN(C)CC[PH+](c1ccccc1)c1ccccc1.CN(C)CC[PH+](c1ccccc1)c1ccccc1.[Cl-].[Pd+2]
> 100 µM

Return GI50 (reported value) for this compound: Cc1ccc(NC(=O)CC2CC2)cc1-c1ccc(C(=O)NCC2CC2)cc1
> 17.3 µM

Check the records and state GI50 for COc1ccc2c(c1)C(=O)c1c-2c(N2CCN(C(=O)CNCCNCCO)CC2)nc2ccccc12
2.49 µM

* * *

Tested on: NCI-H23 lung
Assay: NCI tumour cell line growth inhibition, 48 h
Catalogue of TGI readings, one per entry.

Worked cases, answers included:
- compound: "Cn1c(=O)c(-c2ccccc2)c(N=[N+]=[N-])c2ccccc21"
  TGI: "> 100 µM"
- compound: "CCC(C)OC(=O)/C(Br)=C1/OC(=O)c2ccccc2-c2ccccc21 (centres undefined)"
  TGI: "> 100 µM"
- compound: "N#CC(C(=O)C(=O)C(C#N)c1ccc(Br)cc1)c1ccc(Br)cc1 (centres undefined)"
  TGI: "14.1 µM"

Kindly review the next compound as well.
Note down TGI recorded for CS(=O)(=O)CCNCc1nc(-c2ccc3ncnc(Nc4ccc(OCc5cccc(C(F)(F)F)c5)cc4)c3c2)cs1
> 25 µM

* * *

Test system: EKVX NSCLC
Experiment: NCI tumour cell line growth inhibition, 48 h
List of GI50 values.

Example entries begin here.
- molecule: "COc1ccc2c(c1)C(=O)c1c-2c(N2CCN(C(=O)CNCCNCCO)CC2)nc2ccccc12"
  value_kind: "GI50"
  experimental_value: "7150 nM"
- molecule: "COc1ccc(-c2nc3ccc(-c4nc5ccc(N6CCN(c7ccccc7)CC6)cc5[nH]4)cc3[nH]2)cc1OC"
  value_kind: "GI50"
  experimental_value: "2290 nM"
- molecule: "O=C(N[C@@H](c1ccc(Cl)c(Cl)c1)C1CNC1)c1ccc2cnccc2c1"
  value_kind: "GI50"
  experimental_value: "288 nM"
- molecule: "COc1cc(F)ccc1-c1ncnc(Nc2cccc(CS(C)(=N)=O)c2)n1 (stereo not given)"
  value_kind: "GI50"
  experimental_value: "1400 nM"

Using known records, supply GI50 for O=C1/C(=C/c2cccc(Cl)c2Cl)N=C(c2ccccc2)N1C1CC1
9900 nM

* * *

Test system: RPMI-8226 leukemia
Experiment: NCI tumour cell line growth inhibition, 48 h
value_kind: TGI

Fill in TGI for record CN1C2CCC1CC(=CCOC(c1ccc(F)cc1)c1ccc(F)cc1)C2
38 µM

Please report the measured TGI for COC(CNC(=O)C(C)NC(=O)/C=C/c1ccccc1)OC (centres undefined)
> 100 µM

Identify TGI associated with the molecule COc1cc(C2c3cc4c(cc3OC3(OC)COC(=O)C23)OCO4)cc(OC)c1OC(C)=O (centres undefined)
> 100 µM

Please report the measured TGI for Cc1ccc(/C=C/C(=O)c2sc(-c3nc(C)c(C(=O)/C=C/c4ccc(C)cc4)s3)nc2C)cc1
> 100 µM

For the molecule CC1CN(C(=O)CN2CCC(CCCCN(C)C)CC2)c2ccccc2NC1=O (centres undefined) , give its measured TGI value.
> 100 µM

* * *

Tested on: M14 melanoma
Test: NCI tumour cell line growth inhibition, 48 h
Recorded TGI for the following compounds

Example cases with answers are listed next.
- compound: "CCOC(=O)NC(Nc1ccc(S(=O)(=O)Nc2nc(C)cc(C)n2)cc1)(C(=O)OCC)C(F)(F)F (stereo not drawn)"
  target_desc: "M14 melanoma"
  TGI: "> 100 µM"
- compound: "COc1ccc2cc(/C=N/NC(=O)Nc3ccccc3)ccc2c1"
  target_desc: "M14 melanoma"
  TGI: "> 100 µM"
- compound: "Cc1[nH]nc(C(F)(F)F)c1N=NN1CCOCC1"
  target_desc: "M14 melanoma"
  TGI: "32.8 µM"

Check the records and state TGI for COc1ccc(CC2NCCc3c2[nH]c2ccccc32)cc1 (stereo not drawn)
> 100 µM

Supply recorded TGI for COc1cc(C2c3cc4c(cc3OC3(OC)COC(=O)C23)OCO4)cc(OC)c1OC(C)=O (stereo not drawn) here.
> 74.2 µM

Look up TGI of O=C1C=CC(=O)c2cc3cc(CBr)ccc3cc21 and report it.
23.4 µM

Give reported TGI value for S=C(S)NCNC(=S)S.[Zn+2]
> 100 µM
